Test system: Rattus norvegicus
method: Hypoglycemic activity in 18 hrs fasted Wistar albino rat assessed as reduction of blood glucose level at 10 mg/kg, po after 2 hrs (reference value: 101.03 +/- 1.93 mg/dl)
Format: functional
Entries annotated with measured Activity
# number only, unit mg/dL dropped from output

Please review the entries below; each comes with its answer.
O=[N+]([O-])c1cc(S(=O)(=O)NCc2ccco2)cc2c1Nc1ccccc1O2	96.21
O=[N+]([O-])c1cc(S(=O)(=O)Nc2cccc(F)c2)cc2c1Nc1ccccc1O2	95.45
CCN(CC)S(=O)(=O)c1cc2c(c([N+](=O)[O-])c1)Nc1ccccc1O2	122.92
O=[N+]([O-])c1cc(S(=O)(=O)NCc2cccs2)cc2c1Nc1ccccc1O2	86.45
O=[N+]([O-])c1cc(S(=O)(=O)NC2CCCCC2)cc2c1Nc1ccccc1O2	90.22

*Q* Data request, read-out Activity, for `O=[N+]([O-])c1cc(S(=O)(=O)N2CCCCC2)cc2c1Nc1ccccc1O2`
*A* 72.67

*Q* Data request, read-out Activity, for `CC(C)c1ccc(NS(=O)(=O)c2cc3c(c([N+](=O)[O-])c2)Nc2ccccc2O3)cc1`
*A* 74.28

*Q* Data request, read-out Activity, for COc1ccc(Cl)cc1C(=O)NCCc1ccc(S(=O)(=O)NC(=O)NC2CCCCC2)cc1 [GLYBURIDE]
*A* 90.2

*Q* Data request, read-out Activity, for `CCCNS(=O)(=O)c1cc2c(c([N+](=O)[O-])c1)Nc1ccccc1O2`
*A* 75.48

*Q* Data request, read-out Activity, for `O=[N+]([O-])c1cc(S(=O)(=O)Nc2ccccc2O)cc2c1Nc1ccccc1O2`
*A* 71.38

###

Test system: Rattus norvegicus
method: Hypoglycemic activity in 18 hrs fasted Wistar albino rat assessed as reduction of blood glucose level at 10 mg/kg, po after 2 hrs (reference value: 101.03 +/- 1.93 mg/dl)
Format: functional
Entries annotated with measured Activity
# number only, unit mg/dL dropped from output

Please review the entries below; each comes with its answer.
CC(C)N(C(C)C)S(=O)(=O)c1cc2c(c([N+](=O)[O-])c1)Nc1ccccc1O2	67.5
COc1ccc(CNS(=O)(=O)c2cc3c(c([N+](=O)[O-])c2)Nc2ccccc2O3)cc1	102.6

// next item, Activity requested
*Q* Data request, read-out Activity, for `O=[N+]([O-])c1cc(S(=O)(=O)Nc2ccc(Br)cc2)cc2c1Nc1ccccc1O2`
*A* 95.31

###

System: Rattus norvegicus
method: Hypoglycemic activity in 18 hrs fasted Wistar albino rat assessed as reduction of blood glucose level at 10 mg/kg, po after 2 hrs (reference value: 101.03 +/- 1.93 mg/dl)
Format: functional
Entries annotated with measured Activity
# number only, unit mg/dL dropped from output

Please review the entries below; each comes with its answer.
Cc1ccc(NS(=O)(=O)c2cc3c(c([N+](=O)[O-])c2)Nc2ccccc2O3)c(C)c1	93.55
O=[N+]([O-])c1cc(S(=O)(=O)Nc2ccc(Cl)cc2)cc2c1Nc1ccccc1O2	106.25

*Q* Data request, read-out Activity, for `COc1ccc(NS(=O)(=O)c2cc3c(c([N+](=O)[O-])c2)Nc2ccccc2O3)cc1`
*A* 116.66

*Q* Data request, read-out Activity, for `O=[N+]([O-])c1cc(S(=O)(=O)N2CCOCC2)cc2c1Nc1ccccc1O2`
*A* 59.35

*Q* Data request, read-out Activity, for CC(NS(=O)(=O)c1cc2c(c([N+](=O)[O-])c1)Nc1ccccc1O2)c1ccccc1 (centres undefined)
*A* 78.26

*Q* Data request, read-out Activity, for `O=[N+]([O-])c1cc(S(=O)(=O)Nc2ccc(O)cc2)cc2c1Nc1ccccc1O2`
*A* 46.34

*Q* Data request, read-out Activity, for `O=[N+]([O-])c1cc(S(=O)(=O)Nc2ccccc2)cc2c1Nc1ccccc1O2`
*A* 102.6

*Q* Data request, read-out Activity, for `Cc1ccccc1NS(=O)(=O)c1cc2c(c([N+](=O)[O-])c1)Nc1ccccc1O2`
*A* 52.43

*Q* Data request, read-out Activity, for `NS(=O)(=O)c1cc2c(c([N+](=O)[O-])c1)Nc1ccccc1O2`
*A* 65.62
